# Kd values compiled below
# EXPERIMENTAL SYSTEM: T1, PHD2 and PHD3 fingers of human MLL3 (aa 342-439) (human, UniProt Q8NEZ4 342-439)
# T1 chain: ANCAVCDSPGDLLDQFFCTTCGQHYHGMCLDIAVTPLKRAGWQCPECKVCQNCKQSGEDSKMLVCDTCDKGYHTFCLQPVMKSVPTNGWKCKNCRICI

BINDER	Kd [µM]
NRTGAITLADIKAKAQLVKAQ (peptide, UniProt Q76L83 650-670, looked up, ASXL2, residues 650-670; R655I is said to be associated with large intestine cancer; also called R655I mutant of ASXL2; source: synthetic peptide (SynPeptide)) [ASXL2 peptide (aa 650-670) R655I]	10.5
NRTGARTLADEKAKAQLVKAQ (peptide, UniProt Q76L83 650-670, looked up, ASXL2, residues 650-670; also called I660E mutant of ASXL2; source: synthetic peptide (SynPeptide)) [ASXL2 peptide (aa 650-670) I660E]	84
